B1: INTS3 (parent)
chain: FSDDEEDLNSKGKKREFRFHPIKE

Variants of: B1
Experiment: protein stability index of a GFP-peptide fusion (GPS, HEK-293T) (PSI 1-6); higher = more stable;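 further: lentivirally expressed fusions sorted by FACS into six bins by GFP to DsRed ratio, PSI derived from sequencing read proportions per bin multiplied by bin number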
Conditions: c terminus: a fixed tail appended
property.measured: protein stability index
Response field accepts a number only; no unit should be typed.

(Q) Give me measured protein stability index, please, for this variant: FSDDEEDLNSKGKKRNFRFHPIKE [E16N]
(A) 2.88

(Q) Give me measured protein stability index, please, for this variant: FSDDECDLNSKGKKREFRFHPIKE [E6C]
(A) 2.62

(Q) Give me measured protein stability index, please, for this variant: FSDDEEDLNMKGKKREFRFHPIKE [S10M]
(A) 3.56
